Each entry below lists one item and its recorded Papp value.
# experiment_notes: passive permeability, PAMPA, ADME assay (AID 1508612)
# measurement_setup: pH 7.4, 30.0 min, 50.0 µM

Some entries whose results are on file:
O=S(=O)(Nc1nccs1)c1ccc(NCc2cccc(O)c2)cc1    1.15 ×10⁻⁶ cm/s
Fc1cc(Nc2nc(-c3ccncc3)nc3ccccc23)ccc1-c1cccc(OC(F)F)c1    30.1 ×10⁻⁶ cm/s
COc1ccc(Nc2nc(-c3ccncc3)nc3ccccc23)cc1F    107 ×10⁻⁶ cm/s
Cc1ccc(-c2nc(NCC(=O)Nc3cccc(C(=O)O)c3)c3ccccc3n2)cc1    < 1 ×10⁻⁶ cm/s
Cc1ccc(-c2cc(C(=O)Nc3cccc(S(=O)(=O)Nc4nccs4)c3)c3ccccc3n2)cc1C    22.3 ×10⁻⁶ cm/s

Name the reported Papp value associated with the compound O=C(Cc1ccccc1)Nc1ccc(S(=O)(=O)Nc2nccs2)cc1
1.67 ×10⁻⁶ cm/s

Also CNc1nc(-c2ccc3c(N)n[nH]c3c2)cc(N2C[C@@H](C(=O)NC3CCCCC3)CC[C@@H]2C)n1 , if possible.
14.4 ×10⁻⁶ cm/s

Also C[C@@H]1C(=O)O[C@H]2[C@H]1CC[C@@]1(C)Cc3sc(NS(=O)(=O)Cc4ccccc4)nc3[C@@H](C)[C@H]21 , if possible.
> 1000 ×10⁻⁶ cm/s

====

# experiment_notes: passive permeability, PAMPA, ADME assay (AID 1508612)
# measurement_setup: pH 7.4, 30.0 min, 50.0 µM
result_type: Papp (×10⁻⁶ cm/s)
Supply the numeric figure in ×10⁻⁶ cm/s, leaving out any unit text.

COc1ccc(O)c2c(=O)c3c(OC)cc4c(c3oc12)C1C=COC1O4 (centres undefined)    890
CC(=O)c1c(C)[nH]c(C(=O)Nc2cccc([S+](=O)([O-])Nc3ccccc3C)c2)c1C    628
CCCc1c(CC)c(=N)c2ccccc2n1C    6.67
CN(C)c1cccc(-c2nc(N3CCC(C(N)=O)CC3)ncc2F)c1    780
COc1ccc(-c2csc(N3CCC(C(N)=O)CC3)n2)cc1    646
COc1ccccc1-c1nnc2sc(-c3ccc(N(C)C)cc3)nn12    278
NC(=O)C1CCN(c2nc(-c3cccc4sc5ccccc5c34)cs2)CC1    364
COc1ccccc1NS(=O)(=O)c1cccc(NC(=O)c2[nH]c(C)c(C(C)=O)c2C)c1    197

Name the reported Papp value associated with the compound COc1cccc(OC)c1C(=O)Nc1ccccc1C(=O)Nc1cccc(C(F)(F)F)c1
899

Also Fc1ccc(Nc2nc(-n3ccnc3)nc3ccccc23)cc1F , if possible.
223

Also CN(C)c1cccc(-c2cnc(N3CCC(c4ncc[nH]4)CC3)s2)c1 , if possible.
955

Also CC(=O)c1cccc(-c2csc(N3CCC(C(N)=O)CC3)n2)c1 , if possible.
328

Also Cn1cc(-c2nc(Nc3ccc(F)c(F)c3)c3ccccc3n2)cn1 , if possible.
315

Also CC(=O)c1c(C)[nH]c(C(=O)Nc2ccc(C)c(S(=O)(=O)N3CCCCCC3)c2)c1C , if possible.
792

Also Cc1cc(C)c(C(=O)Nc2cccc([S+](=O)([O-])N3CCCC3)c2)[nH]1 , if possible.
948

Also Fc1ccc(-c2csc3ncnc(Sc4nnnn4C4CC4)c23)cc1 , if possible.
834

Also Cc1c(C(=O)OCCOc2ccccc2)[nH]c2c1C(=O)CC(c1ccccc1)C2 (centres undefined) , if possible.
276

====

# experiment_notes: passive permeability, PAMPA, ADME assay (AID 1508612)
# measurement_setup: pH 7.4, 30.0 min, 50.0 µM
Each entry below lists one item and its recorded Papp value.

Some entries whose results are on file:
COc1ccc(C(=O)N[C@@H]2CCC[C@@H]2C(=O)N2CCC(Cc3ccccc3)CC2)cc1    > 1000 ×10⁻⁶ cm/s
Fc1ccc(Nc2nc(-c3ccncc3)ncc2-c2ccccc2)cc1F    < 1 ×10⁻⁶ cm/s
O=C(Nc1nc(-c2ccccc2)cs1)c1ccncc1NS(=O)(=O)c1ccccc1Cl    > 1000 ×10⁻⁶ cm/s
COc1ccc(CNC(=O)c2sc3nc(C)cc(C)c3c2N)cc1    > 1000 ×10⁻⁶ cm/s

Name the reported Papp value associated with the compound Cn1c(=O)c2c(nc(Cl)n2Cc2ccc(Cl)cc2)n(C)c1=O
> 1000 ×10⁻⁶ cm/s

====

Each entry below lists one item and its recorded Papp value.
# experiment_notes: passive permeability, PAMPA, ADME assay (AID 1508612)
# measurement_setup: pH 7.4, 30.0 min, 50.0 µM

Some entries whose results are on file:
CCOc1ccccc1CNS(=O)(=O)c1ccc(-c2cnc(C3CC3)o2)cc1    > 1000 ×10⁻⁶ cm/s
COC(=O)CNC(=O)c1nc(-c2ccc(Cl)cc2Cl)c2cnccn12    > 1000 ×10⁻⁶ cm/s
COc1cncc(Nc2ncc(-c3cccc(N(C)C)c3)c3c2OCC3)c1    < 1 ×10⁻⁶ cm/s
O=C1Nc2ccccc2/C1=C\c1ccc(O)c(F)c1    343 ×10⁻⁶ cm/s
Cc1ccc(S(=O)(=O)Nc2cc(Br)ccc2C(=O)Nc2nc(-c3ccccc3)cs2)cc1    7.71 ×10⁻⁶ cm/s

Name the reported Papp value associated with the compound COc1ccc(NC(=O)c2[nH]c(C)c(C(C)=O)c2C)cc1
377 ×10⁻⁶ cm/s

Also O=C(O)CNC(=O)c1c(O)c2ccccc2n(Cc2ccccc2)c1=O , if possible.
14.6 ×10⁻⁶ cm/s

Also CCOc1ccc(CCN(C)C(=O)c2cc3sccc3n2Cc2ccccc2)cc1OCC , if possible.
> 1000 ×10⁻⁶ cm/s

Also O=C(Nc1ccc(Oc2ccnc3[nH]ccc23)c(F)c1)c1cccn(-c2ccc(F)cc2)c1=O , if possible.
407 ×10⁻⁶ cm/s

Also OC(CCN1CCCCC1)c1ccc(-c2ccccc2)cc1 (stereo unspecified) , if possible.
> 1000 ×10⁻⁶ cm/s

Also O=C(Nc1ncc(Cc2ccc(C(F)(F)F)cc2)s1)c1ccc(-c2cccnc2)o1 , if possible.
984 ×10⁻⁶ cm/s

====

# experiment_notes: passive permeability, PAMPA, ADME assay (AID 1508612)
# measurement_setup: pH 7.4, 30.0 min, 50.0 µM
Each entry below lists one item and its recorded Papp value.
Supply the numeric figure in ×10⁻⁶ cm/s, leaving out any unit text.

Some entries whose results are on file:
O=S(=O)(Nc1ccccc1)c1ccc(NCc2cccc(Cl)c2O)cc1    487
COc1ccc(Cl)cc1NC(=O)c1sc2nc3c(cc2c1N)N1CCC3CC1    55
COc1ccc(-n2cnc3cc(C(=O)N4CCCCC4)ccc32)cc1    624

Turning to the following compound.
Name the reported Papp value associated with the compound Oc1ccc(CNc2ccccc2F)c2cccnc12
34

====

Each entry below lists one item and its recorded Papp value.
# experiment_notes: passive permeability, PAMPA, ADME assay (AID 1508612)
# measurement_setup: pH 7.4, 30.0 min, 50.0 µM
Supply the numeric figure in ×10⁻⁶ cm/s, leaving out any unit text.

Some entries whose results are on file:
CC[C@@](C)(Nc1ccnc(-c2c[nH]c3ncccc23)n1)C(=O)NCC(F)(F)F    612
Cc1cccc2nc(NC3=NC(c4[nH]ncc4Cl)C4=C(CCCC4=O)N3)oc12 (stereo not given)    624
COc1cnccc1-c1nc(Nc2ccc(F)c(F)c2)c2ccccc2n1    3.6
O=S(=O)(Nc1nccs1)c1ccc(NCc2cccc(Cl)c2O)cc1    18.4
O=C1Nc2ccccc2/C1=C/c1cc(Cl)c(O)c(Cl)c1    49

Name the reported Papp value associated with the compound O=C(Nc1ncccc1O)c1ccc(S(=O)(=O)Nc2ccccc2)cc1
344

Also COc1ccc(-n2nc(C3CCN(C(=O)C4CC4)CC3)[nH]c2=O)cc1 , if possible.
148

====

# experiment_notes: passive permeability, PAMPA, ADME assay (AID 1508612)
# measurement_setup: pH 7.4, 30.0 min, 50.0 µM
result_type: Papp (×10⁻⁶ cm/s)
Supply the numeric figure in ×10⁻⁶ cm/s, leaving out any unit text.

Some entries whose results are on file:
C[C@@]1(O)[C@H](O)[C@@H](CO)O[C@H]1n1ccc(N)nc1=O    9.97
COc1ccc(CNC(=O)CCCn2nc(C)c3c(C)n(-c4ccc(C)cc4)nc3c2=O)cc1OC    235
Cc1cc(C)c2nc(-c3ccccn3)cc(C(=O)Nc3ccc(S(=O)(=O)Nc4onc(C)c4C)cc3)c2c1    240
CC1=Nc2cc(C(=O)NCCc3ccccc3)ccc2Sc2c(C)ccc(C)c21    359
O=C1CCCC2=C1C(c1[nH]ncc1Cl)N=C(Nc1nc3c(Br)cccc3o1)N2 (centres undefined)    531

Name the reported Papp value associated with the molecule Nc1nc2c(s1)C(c1ccc(F)cc1F)CC(=O)N2 (centres undefined)
181

Also Cc1ccc(S(=O)(=O)Nc2cnccc2C(=O)Nc2nc(-c3ccccc3F)cs2)cc1 , if possible.
51.2
